# method-notes: Lipophilicity, logD of compound by shake flask method
# Type: physicochemical
# cond: octanol/water
readout-label: logD

Record excerpt, results attached:
molecule=C[C@H](Oc1ccnc(C2CC2)n1)c1c(Cl)ccc(F)c1Cl reading=4.2
molecule=C[C@H](Oc1cc(CC#N)c2ncc(/C=C/C(=O)O)c(C3CC3)c2c1)c1c(Cl)ccc(F)c1Cl reading=2.8
molecule=Cc1cc(O[C@@H](C)c2c(Cl)ccc(F)c2Cl)ccc1/C=C/C(=O)O reading=3.2
molecule=C[C@H](Oc1ccc2ncc(/C=C/C(=O)O)c(C(F)F)c2c1)c1c(Cl)ccc(F)c1Cl reading=3.1
molecule=C[C@H](Oc1ccc(/C=C/C(=O)O)c(C2CC2)c1)c1c(Cl)ccc(F)c1Cl reading=3.6

A: Cc1cnn(C)c1[C@H](C)Oc1ccc2ncc(/C=C/C(=O)O)c(C3CC3)c2c1
B: C[C@H](Oc1ccc(NC(=O)CC(=O)O)c(C2CC2)n1)c1c(Cl)ccc(F)c1Cl
C: C[C@H](Oc1ccc2ncc(/C=C/C(=O)O)c(-n3ccnc3)c2c1)c1c(Cl)ccc(F)c1Cl
List these items ordered by logD, big to small. Returns: the labels arranged in the requested order.
C, B, A
